Data origin, for the record: PubChem BioAssay (NCI)

# test name: NCI Yeast Anticancer Drug Screen. Data for the mlh1 rad18 strain (AID 175)
# run conditions: S. cerevisiae mlh1 rad18 strain growth inhibition; at 50.0 µM; hits give high values
Compounds without any hit were thinned out: in the full panel of roughly 79,000, 15% have a hit.
measured property: growth inhibition (%)

                                    compound  measured_property  measure_unit  assay_result
 0      COc1ccc(/C=C2/N=C(c3ccccc3)OC2=O)cc1  growth inhibition             %          -6.8
 1       N=C(N)SCC(=O)c1ccc([N+](=O)[O-])cc1  growth inhibition             %           5.8
 2     O=C(O)c1cccc(Cl)c1-c1c(Cl)cccc1C(=O)O  growth inhibition             %         -8.45
 3  CN(C)c1ccc(/C=N/N(Cc2ccccc2)c2ccccc2)cc1  growth inhibition             %          10.2
 4               S=c1c2ccccc2c(=S)n2n1CC=CC2  growth inhibition             %          15.7
 5  O=C(O)c1ccccc1SC(Sc1ccccc1C(=O)O)c1ccccc1  growth inhibition             %          10.6
 6  CN1CCCC2C3=CC=C4CC(O)CCC4(C)C3CCC21C (stereo not given)  growth inhibition             %          35.5
 7  CCOC(=O)Cc1c(Cc2[nH]c(C(=O)OCc3ccccc3)c(CC(=O)OCC)c2CC(=O)OCC)[nH]c(C(=O)OCc2ccccc2)c1CC(=O)OCC  growth inhibition             %         -17.3
 8           CCOC1CCC=CO1 (stereo not given)  growth inhibition             %          39.6
 9       CCOc1ccc(CN(CCN2CCCCC2)c2ccccn2)cc1  growth inhibition             %          24.1
10  CCCCCCCC(CC#N)(CCCCC)CCCCCC (stereo not given)  growth inhibition             %          26.1
11                               CCCCCCCSC#N  growth inhibition             %          29.6
12  CCC(C)N(C(=O)C(C)Br)C(C)CC (stereo not given)  growth inhibition             %           5.9
13                   CCCCNC(=O)Nc1cccc(C)c1C  growth inhibition             %          6.35
14  CCC(=O)c1ccc(OC(=O)Nc2ccc(Cl)cc2[N+](=O)[O-])cc1  growth inhibition             %          -124
15   CCOc1ccc(/C=C/c2ccc3ccccc3[n+]2C)cc1OCC  growth inhibition             %          19.7
16  COc1ccc(C2CC(=O)N(c3nccc(C)n3)C(=O)C2)cc1  growth inhibition             %          14.2
17  O=c1ccn(/C=C\c2nc3ccccc3[nH]c2=O)c(=S)[nH]1  growth inhibition             %         -40.4
18  CN(C)Cc1cc(C(=O)/C=C/c2ccccc2Cl)cc(CN(C)C)c1O  growth inhibition             %         -31.1
19                          Nc1ccc(N)c(Cl)c1  growth inhibition             %         -2.85
20  O=C(OCc1ccccc1)C1CC1 (tested in a mixture with another compound)  growth inhibition             %          25.2
21                Cc1ccccc1NC(=O)/C=C\C(=O)O  growth inhibition             %          10.2
22  CC(=O)NC(CCc1ccccc1)C(=O)O (stereo not given)  growth inhibition             %          13.8
23  CCOC(=O)C1CCCCC1NC1CCCCC1C(=O)OCC (stereo not given)  growth inhibition             %           8.9
24            CN(C)CCCNCc1c[nH]c(=O)[nH]c1=O  growth inhibition             %         -25.9
25  Cc1ccc(S(=O)(=O)NN=C2C(C)CC(C(C)(C)C)CC2C)cc1 (stereo not given)  growth inhibition             %            -6
26                                OCc1ccccc1  growth inhibition             %          26.1
27  Cn1c2c(c3ccccc31)CCN(CCCCN1CCc3c(n(C)c4ccccc34)C1=O)C2  growth inhibition             %         -12.8
28  CC(C)=CC1C(COCc2cc3c(cc2Br)OCO3)C1(C)C (stereo not given)  growth inhibition             %         -3.95
29                CCCC1(O)c2ccccc2-c2ccccc21  growth inhibition             %            17
30  FS(F)(F)(F)(F)c1cccc(NC(=S)SCc2ccc(Cl)cc2)c1  growth inhibition             %          30.1
31  COc1ccccc1N1C(Cl)C(=O)C1c1c[nH]c2ccccc12 (stereo not given)  growth inhibition             %         -34.9
32  O=C(c1ccccc1)C(C(c1ccc(Cl)cc1)N1CCOCC1)N1CCOCC1 (stereo not given)  growth inhibition             %          7.65
33    CCCCNS(=O)(=O)c1cc(C(=O)O)cc(C(=O)O)c1  growth inhibition             %          -1.7
34  NCCCCC(N)C(=O)NCCNc1ccc(NCCNC(=O)C(N)CCCCN)c2c1C(=O)c1ccccc1C2=O (stereo not given)  growth inhibition             %         -19.1
35                  CCN(CC)[Si](C)(C)N(CC)CC  growth inhibition             %           8.1
36  COc1cc(C(O)CCBr)c(OC)cc1C (stereo not given)  growth inhibition             %          19.9
37   COc1ccc2c(=O)c(Cc3c[nH]c4ccccc34)coc2c1  growth inhibition             %          19.2
38            Cc1[nH]c2c(C)ccc(C)c2c1CC(=O)O  growth inhibition             %          10.2
39                  CCCCCC(Nc1nncs1)Nc1nncs1  growth inhibition             %          12.6
